For each record, write down the corresponding Kd.
Biological target: T1, cynomolgus monkey ST2 antigen (Cyno-ST2-his, Sino biological, 90915-C08H) (cynomolgus monkey, UniProt Q01638 19-328 (human entry))
T1 construct: Bought protein; not shown: his tag
T1 chain: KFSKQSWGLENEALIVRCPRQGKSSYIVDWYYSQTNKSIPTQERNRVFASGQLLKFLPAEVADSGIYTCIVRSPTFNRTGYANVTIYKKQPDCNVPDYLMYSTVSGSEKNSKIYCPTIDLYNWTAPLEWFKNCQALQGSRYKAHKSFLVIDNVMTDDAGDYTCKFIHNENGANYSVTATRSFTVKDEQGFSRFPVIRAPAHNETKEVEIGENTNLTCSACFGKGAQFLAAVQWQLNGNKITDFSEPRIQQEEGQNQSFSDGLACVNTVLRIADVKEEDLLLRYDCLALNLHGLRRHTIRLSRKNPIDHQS
Assay: SPR (Biacore T200), Cyno-ST2-his captured by anti-his antibody on CM5, antibody as analyte, 1:1 model
Give the value in nM but do not write nM after it.

(Q) What value of Kd has been reported for the following binder? Humanized 31C8-1.2 (antibody, human IgG2, kappa, V domains shown, also called hz31C8-1.2; hz31C81-1.2) VH: QVQLVQSGAKVKKPGATVKISCKASGYIFIDSEMHWVQQAPGKGLEWMGAIDPETGDTVYAKKFKGRVTITADKSSSTAYMELSSLRSEDTAVYYCTGSTTDYYFAYWGQGTLVTVSS VL: DIQMTQSPSSLSASVGDRVTITCRSSKSLLHSNGIIYLYWYQQKPGKAPKLLIYQLSNLASGVPSRFSSSGSGTDFTLTISSLQPEDFATYYCAQNLELPFTFGQGTKVEIKR
(A) 5.27

(Q) What value of Kd has been reported for the following binder? Chimeric 31C8 (antibody, human IgG2, kappa, V domains shown, also called xi31C8) VH: QVQLQQSGPELVRPGASVTLSCKASGYIFIDSEMHWVKQTPVHGLEWIGAIDPETGDTVYNQKFKGKATLTADKSSSTASMELSSLTSEDSAVYYCTGSTTDYYFAYWGQGTTLTVSS VL: DIVMTQAAFSNPVTLGTSASISCRSSKSLLHSNGIIYLYWYLQKPGQSPQLLIYQMSNLASGVPDRFSSSGSGTDFTLRISRVEAEDVGVYYCAQNLELPFTFGSGTKLEIKR
(A) 1.62

(Q) What value of Kd has been reported for the following binder? GSK3772847 (antibody STLM208 in CN104411333, prepared in-house) (antibody, human IgG2, kappa, V domains shown, Control anti-ST2 antibody) VH: EVQLLESGGGLVQPGGSLRLSCAASGFTFSIYDMIWVRQAPGKGLEWVSSIRGEGGGTYYADSVKGRFTISRDNSKNTLYLQMNSLRAEDTAVYYCARDPWSTEGSFFVLDYWGQGTLVTVSS VL: EIVLTQSPATLSLSPGERATLSCRASQSVDDDLAWYQQKPGQAPRLLIYDASNRATGIPARFSGSGSGTDFTLTISSLEPEDFAVYYCQQYITAPLTFGQGTKVEIKR
(A) 0.0923

(Q) What value of Kd has been reported for the following binder? Humanized 31C8-1.1 (antibody, human IgG2, kappa, V domains shown, also called hz31C8-1.1; hz31C81-1.1) VH: EVQLVQSGAEVKKPGATVKISCKASGYIFIDSEMHWVQQAPGKGLEWMGAIDPETGDTVYAEKFQGRVTITADKSSSTAYMELSSLRSEDTAVYYCTGSTTDYYFAYWGQGTLVTVSS VL: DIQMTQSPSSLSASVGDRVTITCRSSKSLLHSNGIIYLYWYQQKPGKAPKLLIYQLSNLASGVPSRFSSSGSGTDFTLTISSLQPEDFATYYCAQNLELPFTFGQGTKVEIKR
(A) 2.47
